System: Surinam grass
Test: Test B pre-/postemergence herbicide test
Format: in vivo, Urochloa decumbens
Condition Parameters: postemergence, 125 g ai/ha; visual rating, scale 0 (no effect) to 100 (complete control)
Observed Property: Surinam Grass plant response rating
Reply with just the number.

C=CCN(CC=C)C(=O)c1cncc(NC(=O)c2cc(C(C)(C)C)nn2CC)c1 = 0
CCNC(=O)c1cccc(NC(=O)c2nn(C(C)(C)C)cc2C(F)(F)F)c1 = 10
CCNC(=O)c1cncc(NC(=O)c2cc(C(C)(C)C)nn2CC)c1 = 10
CCn1nc(C(C)(C)C)cc1C(=O)Nc1cccc(C(C)=O)c1 = 10

Then there is this compound:
Looking up CCNC(=O)c1ccc(F)c(NC(=O)C2CC(C(C)(C)C)=NN2CC)c1 (racemic) , I see its Surinam Grass plant response rating listed as 10

====

Tested on: velvetleaf
Test: Test B pre-/postemergence herbicide test
Format: in vivo, Abutilon theophrasti
Condition Parameters: Postemergence, 500 g ai/ha; scale 0 (no effect) to 100 (complete control)
Procedure: […] At the same time, plants selected from these crop and weed species and also blackgrass (Alopecurus myosuroides Huds.), wheat (Triticum aestivum L.) and wild oat (Avena fatua L.) were treated with postemergence applications of test chemicals formulated in the same manner. […] Treated plants and controls were maintained in a greenhouse for 13 to 15 days, after which time all species were compared to controls and visually evaluated. […]
# Velvetleaf plant response rating annotations
Answer as a number with no unit attached.

Examples with their reported Velvetleaf plant response rating follow.
CCn1nc(C(C)(C)C)cc1C(=O)Nc1cccc(OS(=O)(=O)CC)c1 = 70
CCN(C(C)=O)C(=O)c1ccc(F)c(NC(=O)c2cc(C(C)(C)C)nn2CC)c1 = 50
CCc1nn(C(C)(C)CC)nc1C(=O)Nc1cc(C(=O)N2CC=CC2)ccc1F = 20
C=CCN(CC=C)C(=O)c1cccc(NC(=O)c2nn(C(C)(C)C)nc2CC)c1 = 50
C#CCNC(=O)c1ccc(F)c(NC(=O)c2nn(C(C)(C)C)nc2CC)c1 = 20

# compound Cc1nn(C(C)C)nc1C(=O)Nc1cc(C(=O)N2CC=CC2)ccc1F ; its Velvetleaf plant response rating = 30

// recorded Velvetleaf plant response rating for CCN(C)C(=O)c1cccc(NC(=O)c2nn(C(C)C)nc2C)c1 : 20

====

Test system: cocklebur
Test: Test B pre-/postemergence herbicide test
Format: in vivo, Xanthium strumarium
Condition Parameters: 500 g ai/ha; visual rating, 0 = no effect, 100 = complete control; preemergence
Observed Property: Plant response rating, Cocklebur
// return just the number, without any unit appended

Measured Plant response rating, Cocklebur of CCN(C)C(=O)c1ccc(F)c(NC(=O)c2cc(C(C)(C)C)nn2CC)n1 [Compound 280] : 0

Quick note, Plant response rating, Cocklebur for CCNC(=O)c1ccc(F)c(NC(=O)c2cc(C(C)(C)C)nn2CC)n1 [Compound 278] landed at 0

Record CCNC(=O)c1ccc(F)c(NC(=O)c2cc(C3(C)CC3)nn2CC)c1 [Compound 300] , field Plant response rating, Cocklebur: 20

Entry C#CCNC(=O)c1cncc(NC(=O)c2cc(C(C)(C)C)nn2CC)n1 [Compound 289] — recorded Plant response rating, Cocklebur = 0

// Plant response rating, Cocklebur value for CCn1nc(C(C)(C)C)cc1C(=O)Nc1cccc(C(=O)N(C)OC)n1 [Compound 246] : 0

The compound listed as C=CCNC(=O)c1cccc(NC(=O)c2cc(C(C)(C)C)nn2C)n1 [Compound 318] shows Plant response rating, Cocklebur equal to 0

Record CCNC(=O)c1cc(NC(=O)c2cc(C(C)(C)C)nn2CC)c(F)cc1F [Compound 252] . Reported Plant response rating, Cocklebur: 0

Reported Plant response rating, Cocklebur for CCNC(=O)c1cccc(NC(=O)c2nn(C3CCCC3)nc2CC)c1 [Compound 356] was 20

# compound C#CCNC(=O)c1cc(NC(=O)c2cc(C(C)(C)C)nn2CC)ccn1 [Compound 283] ; its Plant response rating, Cocklebur = 0
